test system: IGROV1 ovarian; experiment: NCI tumour cell line growth inhibition, 48 h
Recorded TGI by entry
measurement type: TGI

molecule | measurement type | recorded result
Cc1ccc(NC(=O)C(=O)C2C(=O)NC(=O)NC2=O)cc1C | TGI | > 100 µM
CCOc1cc(NC(C)=O)ccc1C(=O)NNS(=O)(=O)c1ccc(NC(C)=O)cc1 | TGI | > 100 µM
NC(=O)CNc1ccc([As]=[As]c2ccc(NCC(N)=O)cc2)cc1 (configuration not stated) | TGI | 23.8 µM
Nc1nc(SCc2ccccc2Cl)c2[nH]cnc2n1 | TGI | > 100 µM
COc1ccc(/C=N/N=C(\N)NO)c(OC)c1C | TGI | > 100 µM
CCOC(=O)c1sc2nc(SC)nc(Nc3ccc4c(c3)OCCO4)c2c1N | TGI | 78.6 µM
O=[N+]([O-])c1ccc(Sc2c3ccccc3nc3ccccc23)cn1 | TGI | > 64.7 µM
Cc1c(Cl)cccc1NC(=O)c1cccc([N+](=O)[O-])c1O | TGI | > 83.2 µM
O=C(NNc1cnccn1)c1nc2cc(F)ccc2n2cccc12 | TGI | > 100 µM
Oc1ccc(/C=C/c2cc(O)cc3c2C(c2cc(O)cc(O)c2)C(c2ccc(O)c(O)c2)O3)cc1 (configuration not stated) | TGI | > 100 µM
CCOC(=O)C1=C(N)Oc2c(sc3c(C)cccc23)C1c1ccc(F)cc1 (configuration not stated) | TGI | 13.5 µM
N#CC(C#N)=C1CCCOc2c1ccc1ccccc21 | TGI | > 100 µM

====

tested on: UO-31 renal; experiment: NCI tumour cell line growth inhibition, 48 h; in the data active = GI50 below about 0.43 µM; inactive = the rest
Outcomes: active, inactive

compound | class
COc1ccc(-c2noc(N)c2-c2cc(OC)c3c(c2)OCO3)cc1 | inactive
O=C(Nc1ccc(Cl)cc1)Nc1nccs1 | inactive
COc1cc(C(=O)O[C@H](C(N)=O)[C@]2(C)CO2)c2cccc(C)c2c1 | active
CN(C)CCNc1nc2ccccc2c2c(=O)c3cc(F)ccc3sc12 | inactive
C=C(C)[C@@H]1CC[C@]2(C)[C@H](CC[C@@H]3[C@@H]([C@@](C)(O)CCC=C(C)C)CC[C@]32C)[C@@]1(C)CCC(=O)O | inactive
CCC[CH2][Sn]1([CH2]CCC)[O]CC(COc2c(Cl)cc(Cl)cc2Cl)[O]1 (stereo not given) | inactive
NCCN.O=C([O-])[O-].O=C([O-])[O-].[Co+3].[K+] | inactive
Oc1ccc(N=Nc2nccs2)c(O)c1 | inactive
O=C(NNc1cnccn1)c1nc2cc(F)ccc2n2cccc12 | active
O=C(CCN1CCOCC1)Nc1cccc(-n2cc(-c3ccncc3)c(-c3ccc(Cl)c(O)c3)n2)c1 | inactive

====

system: NCI/ADR-RES ovarian; assay: NCI tumour cell line growth inhibition, 48 h; in the data active means GI50 below about 0.43 µM; inactive means the rest
Outcomes: active, inactive

structure smiles | class
COc1cc(OC)c2sc(-c3ccc(-n4cncc4-c4cc(OC)c(OC)c(OC)c4)cc3)nc2c1 | inactive
CCOC(=O)c1sc(NC(=O)COc2cccc(/C=C3\CCc4cc(OC)ccc4C3=O)c2)nc1C | inactive
O=C(N[C@@H](Cc1coc2ccccc12)B(O)O)[C@@H]1C[C@H]2CC[C@@H]1O2 | inactive
CNCCn1c(=O)c2cc(OC)c(OC)cc2c2cnc3cc4c(cc3c21)OCO4 | active
Clc1nc(Cl)c2ncn(Cc3ccccc3Cn3cnc4c(Cl)nc(Cl)nc43)c2n1 | inactive
N#CC(C#N)=C1CCCOc2c1ccc1ccccc21 | inactive
COc1ccc(-c2nn(-c3cccc(Cl)c3)cc2-c2nc(N)[nH]c(=O)c2C#N)cc1 | inactive
Nc1c(C(=O)Nc2ccccc2Cl)sc2nc3c(cc12)C(=O)CCC3 | inactive
O=C(N/N=C/c1ccc(O)cc1O)c1cccnc1 | inactive

====

Recorded TGI by entry
test system: SK-MEL-28 melanoma; assay: NCI tumour cell line growth inhibition, 48 h
measurement type: TGI

molecule | recorded result
CC(NC(=O)c1c(O)[nH]c(=S)[nH]c1=O)c1ccc([N+](=O)[O-])cc1 (stereo unspecified) | > 100 µM
COC(=O)[C@]12CC[C@@H](C)[C@H](C)[C@@H]1C1=CC[C@@H]3[C@@]4(C)C(C=O)=C[C@@](C)(COC(=O)c5ccco5)[C@@H]4[C@H](O)C[C@@]3(C)[C@]1(C)CC2 | 2.64 µM
C[P+](C)(C)c1ccccc1 | > 100 µM
NC(=O)c1cn(Cc2ccccc2)c(=O)n1Cc1ccccc1 | > 100 µM
Cc1ccc(NC(=O)C(=O)C2C(=O)NC(=O)NC2=O)cc1C | > 100 µM
Cc1noc2c1-c1ccccc1C(c1ccc(Cl)cc1)=N[C@H]2CC(N)=O | > 100 µM
Cc1cn2c(/C=N/N=C(N)N)c(-c3ccc(Cl)c([N+](=O)[O-])c3)nc2s1 | 3.05 µM
CCOC(=O)C(Cc1ccc(O)cc1)Nc1nc(=O)c2c(=O)oc(Cl)cc2o1 (stereo unspecified) | 21 µM
O=C1C=CC(=CC=C2C=CN(CCCCCCCCCCC(=O)NCCCCCCCCCCCC(=O)O)C=C2)C=C1 | > 100 µM
COc1ccc(C2COc3c(ccc(O)c3C)C2)cc1OC (stereo unspecified) | > 196 µM
O=C(NC1CCCCC1)c1ccc(Nc2ncnc3c2cnn3-c2ccccc2)cc1 | > 100 µM
CC(=O)NC1C(Sc2ncn(C3OC(CO)C(O)C(O)C3NC(C)=O)n2)OC(CO)C(O)C1O (stereo unspecified) | > 100 µM
CCOC(=O)c1sc(NC(=O)COc2cccc(/C=C3\CCc4cc(OC)ccc4C3=O)c2)nc1C | > 100 µM
CCCCC1C=Cn2c(=O)oc3c(OC(C)C)c(C)c(O)c1c32 (stereo unspecified) | 8.33 µM
O=C1CCSCCC(=O)Nc2ccccc2N1 | > 100 µM
O=C(N/N=C/c1ccc(O)cc1O)c1cccnc1 | 62.6 µM
O=C(CCN1CCOCC1)Nc1cccc(-n2cc(-c3ccncc3)c(-c3ccc(Cl)c(O)c3)n2)c1 | 3.33 µM
COc1ccc(C2c3cc4c(cc3OC(N3CCOCC3)C2C)OCO4)cc1 (stereo unspecified) | > 88 µM
CN(C)CCNC(=O)c1cccc2[nH]c(-c3ccccn3)nc12 | > 58 µM
CC1(C)O[C@H]2OC(CO)C(N=[N+]=[N-])[C@H]2O1 (stereo partly specified) | > 100 µM
COc1cc2c(cc1O)NC(=O)[C@@H]1CCCN1C2=O | > 100 µM

====

Recorded GI50 by entry
tested on: COLO 205 colon; test: NCI tumour cell line growth inhibition, 48 h
measurement type: GI50

compound | recorded result
NCCCOc1cc2ccccc2cc1C(=O)NCCCOc1cc2ccccc2cc1C(=O)Nc1ccc(Cl)cc1O | 1.7 µM
O=C(Nc1ccc(Cl)cc1)Nc1nccs1 | 0.75 µM
O=C(N/N=C/c1ccc(O)cc1O)c1cccnc1 | 2.8 µM
CNC(C)[C@H]1CCC2C3CC=C4C(=O)[C@@H](NC(=O)C=C(C)C)CC[C@]4(C)C3CC[C@@]21C (some centres undefined) | 1.51 µM

====

test system: HS 578T breast; experiment: NCI tumour cell line growth inhibition, 48 h
Where a SMILES comes first, the peptide text is derived from it. The star is where a group is joined. Cbz = O=C(OCc1ccccc1)*
So basically every entry gets a class from its TGI, ranges being bottom bin = under 20 µM, middle bin = from 20 µM up to 50 µM, top bin = 50 µM and over

compound | class
C=CCn1c(SCC(=O)Nc2ccc(C(=O)/C=C/c3cc(OC)c(OC)c(OC)c3)cc2)nnc1-c1ccc(OC)cc1 | top bin
CCOC(=O)CCC(NC(=O)OCc1ccccc1)C(=O)NC(CCC(=O)OCC)C(=O)OCC (stereo unspecified) (Cbz-Glu(OEt)-Glu(OEt)-OEt; configuration not given here) | top bin
CCOC(=O)CCC(NC(=O)C(Cc1ccccc1)NC(=O)OCc1ccccc1)C(=O)OCC (stereo not drawn) (Cbz-Phe-Glu(OEt)-OEt; configuration not given here) | middle bin
CCCCCCCCCCCC(=O)OC[C@@H](C[As](=O)(O)O)OC(=O)CCCCCCCCCCC | middle bin
O=C(Nc1ccc(Cl)cc1)Nc1nccs1 | middle bin
NCCCOc1cc2ccccc2cc1C(=O)NCCCOc1cc2ccccc2cc1C(=O)Nc1ccc(Cl)cc1O | bottom bin
CC1=NC(C)(COC(=O)C2(C)NC(C)(CO)CO2)COC1=O (stereo unspecified) | top bin
CC(=O)NC1CONC1=O (stereo unspecified) | top bin
CCOc1cc(NC(C)=O)ccc1C(=O)NNS(=O)(=O)c1ccc(NC(C)=O)cc1 | top bin
COc1cc2c3c(n(CCCN(CCO)CCO)c(=O)c2cc1OC)-c1cc2c(cc1C3=O)OCO2 | bottom bin
O=c1[nH]c2nc3ccccc3c(=O)n2/c1=C/c1cccs1 | top bin
Cn1c(=S)c2[nH]c(SCCCc3ccccc3)nc2n(C)c1=O | top bin
O=C(NC1CCCCC1)c1ccc(Nc2ncnc3c2cnn3-c2ccccc2)cc1 | middle bin
CC(=O)SC(C[N+](=O)[O-])c1ccc2c(c1)OCO2 (stereo unspecified) | middle bin
COc1ccc(CNc2nc(NC3CCCCC3)nc(NC3CCCCC3)n2)cc1 | top bin
CCC1CC(O)c2c(O)c3c(c(O)c2C1O)C(=O)c1cccc(O)c1C3=O (stereo unspecified) (tested in a mixture with another compound) | bottom bin
Cc1ccnc2c1C(=O)C1=C(OC(C)(C)CC1O)C2=O (stereo unspecified) | bottom bin
CN1CC=C(c2c(N)nc(N)[nH]c2=O)CC1 | top bin
O=C1C=C(Nc2ccc(S(=O)(=O)Nc3nccs3)cc2)c2ccccc2C1=O | top bin
NC(N)=N/N=C(\N=Nc1ccccc1)c1ccc(Cl)cc1 | middle bin
